Every entry's value here was drawn from PubChem BioAssay (EPA / NIEHS).

# Read-out: Vascular cell adhesion molecule 1 (VCAM1), VCAM1 (gene 7412)
# assayOverview: BSK_hDFCGF_VCAM1: BioMAP Diversity Plus: hDFCGF Assay for Vascular cell adhesion molecule 1 (VCAM1) Biomarker Activity (AID 2283065);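 for AC50: VCAM-1 protein level quantified by ELISA after 24 h chemical exposure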
# protocolConditions: primary human foreskin fibroblasts; actives raise or lower the signal
Activity calls are given as the source filed them. Rule for the calls: active = hit-call score of the fitted dose curve at least 0.9, where 1 is the maximum; inactive = score below 0.9.
measuredParameter: AC50

In [3]: df
Out[3]:
                                   compound      observedvalue
0     CCCCCCCCCCCCCCCCCC[N+](C)(C)Cc1ccccc1  0.715 µM (active)
1                  Cc1ccc(C(=O)c2ccccc2)cc1   30.5 µM (active)
2  O=P(O)(O)CCC(F)(F)C(F)(F)C(F)(F)C(F)(F)C(F)(F)C(F)(F)C(F)(F)C(F)(F)F           inactive
3                     Cc1cccc2c1ccc1ccccc12           inactive
4  NC(=NCCCCCCN=C(N)/N=C(\N)Nc1ccc(Cl)cc1)/N=C(\N)Nc1ccc(Cl)cc1   5.46 µM (active)
5                           OCC(CO)(CBr)CBr           inactive

AC50 in this record for Clc1ccc(Nc2nnc(Cc3ccncc3)c3ccccc23)cc1 : inactive

AC50 in this record for C[C@]12CC[C@@H]3c4ccc(O)cc4CC[C@H]3[C@@H]1C[C@@H](O)[C@@H]2O : inactive

AC50 in this record for CN(Cc1cnc2nc(N)nc(N)c2n1)c1ccc(C(=O)N[C@@H](CCC(=O)O)C(=O)O)cc1 : inactive
